- ASSAY METHOD TEXT: Acumen qHTS Assay for Inhibitors of the mTORC1 Signaling Pathway in WT MEF Cells: Hit Validation; note: nearly all actives have a fitted effect of over 60% in size
- MEASUREMENT CONDITIONS: Acumen imaging; series mostly up to 37.3 µM
Results filed as inconclusive are left out. The source made the active and inactive calls. Calls come from the whole dose curve; as a rule, active = well fitted inhibition curve with a large enough effect; inconclusive = small, poorly fitted or top-dose-only effect; inactive = no such curve, though single readings can be large or run the other way.
Outcome codes: active, inactive

- COMPOUND: "Cc1cccc(CSCCNC(=O)CN(c2ccccc2)S(=O)(=O)N(C)C)c1"
  LABEL: "inactive"
- COMPOUND: "O=C(Nc1ccc(Cl)cc1)C1CCC(CNS(=O)(=O)c2ccc(Br)s2)CC1 (stereo not drawn)"
  LABEL: "inactive"
- COMPOUND: "CCN(CC)CCOC(=O)c1ccc(NC(=O)c2nn(-c3ccc(C)cc3)c(=O)c3c2c2ccccc2n3C)cc1"
  LABEL: "active"
- COMPOUND: "COc1cccc(-c2nc(SCC(=O)NCC3CCCO3)c(-c3ccc(F)cc3)[nH]2)c1 (stereo not drawn)"
  LABEL: "inactive"
- COMPOUND: "Cc1cccc(NC(=O)c2c(NC(=O)C(F)(F)F)sc3c2CCCCC3)c1"
  LABEL: "inactive"
- COMPOUND: "COc1ccc(S(=O)(=O)N(CCc2ccccc2)CC(=O)Nc2cccc(OC)c2)cc1"
  LABEL: "inactive"
- COMPOUND: "CS(=O)(=O)N(CC(=O)NCCc1ccccc1)c1cc(C(F)(F)F)ccc1Cl"
  LABEL: "inactive"
- COMPOUND: "CCn1c(CN2CCC(C)CC2)nc2cc(NC(=O)c3ccccc3[N+](=O)[O-])ccc21"
  LABEL: "inactive"
